Below: a set of entries, each annotated with reported MFI.
# SYSTEM_UNDER_TEST: T1, human TMEM106B (human, UniProt Q9NUM4 2-274)
# T1 construct: full-length, transiently expressed on HEK293 cells, or natively expressed on HeLa, U251 and A549 cells (the cell is named under assay); also the source of the Pepscan peptides; also called huTMEM106B; huTMEM
# MEASUREMENT_PROTOCOL: FACS HEK+huTMEM 1.0 ug/ml;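 note: binding of purified mouse IgG antibodies to HEK293 cells transiently expressing human TMEM106B, read by flow cytometry as median fluorescence intensity of live, propidium iodide-negative cells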
Reply with just the number (in MFI).

TM-52 (antibody, V domains shown, mouse IgG (hybridoma)) VH: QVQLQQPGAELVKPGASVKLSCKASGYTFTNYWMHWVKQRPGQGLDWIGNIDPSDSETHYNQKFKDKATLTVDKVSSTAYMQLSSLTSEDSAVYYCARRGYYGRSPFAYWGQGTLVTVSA VL: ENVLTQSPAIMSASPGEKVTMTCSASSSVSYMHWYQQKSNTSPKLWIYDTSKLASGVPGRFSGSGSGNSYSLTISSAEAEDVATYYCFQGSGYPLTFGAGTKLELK    8200

Proceeding to the next binder to report its MFI.
Looking up TM-18 (antibody, V domains shown) VH: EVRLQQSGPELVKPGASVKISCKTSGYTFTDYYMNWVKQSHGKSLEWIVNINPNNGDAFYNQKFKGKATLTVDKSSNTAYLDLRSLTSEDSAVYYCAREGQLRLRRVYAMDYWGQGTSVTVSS VL: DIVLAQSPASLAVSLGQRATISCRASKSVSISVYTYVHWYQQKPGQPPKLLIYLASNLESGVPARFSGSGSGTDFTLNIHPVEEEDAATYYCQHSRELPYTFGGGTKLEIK , I found its MFI recorded as 67300
